# protocolSummary: DHR3 selectivity assay for inhibitors of ROR gamma transcriptional activity
# settings: Drosophila S2 Gal4-DHR3 UAS-luciferase, 20 h; series mostly up to 92.2 µM
Results filed as inconclusive are left out. The source made the active and inactive calls. The call rests on the fitted dose curve; in most records, active means well fitted inhibition curve with a large enough effect; inconclusive means small, poorly fitted or top-dose-only effect, or effect the other way; inactive means no such curve, though single readings can be large or run the other way.
Use one of these outcomes when replying: active, inactive

Outcome logged for COC(=O)c1ccc(OCC(=O)c2ccc(O)cc2O)cc1 in this assay: active

Per the assay record, what outcome was assigned to CCOC(=O)Cn1c(CN2CCc3ccccc3C2)nc2c1c(=O)n(C)c(=O)n2C ? active

Which outcome did this test record for the compound COc1cc(O)c(C(CC(=O)N2CCC(C)CC2)c2ccc(OC)c(OC)c2)c(OC)c1 (stereo not given) ? inactive

I would be grateful if you could indicate the recorded call for COc1cc(O)c(C(CC(=O)NC2CCCc3ccccc32)c2ccc3c(c2)OCO3)c(OC)c1 (stereo not given) . inactive

What outcome does the record of this test show for COCC1CCCCN1C(=O)c1cc(COc2ccc3ncccc3c2)on1 (stereo not given) ? active

Lab log entry: Cc1cc(C)c2sc(NC(=O)c3ccc(N4C(=O)CCC4=O)cc3)nc2c1 — outcome as called in the assay? active

Can you look up the reported call for COc1ccc(C(CC(=O)N2CCCC(C)C2)c2ccc3c(c2)OCO3)c(O)c1 (stereo not given) for me? inactive

Status in this test for COc1ccc(-c2c[n+]3c(n2-c2ccc(C)cc2)CCCCC3)cc1 ? active

Record lookup: outcome of this test for COc1cc(O)c(C(CC(=O)N2CCCC(CN3CCCCC3)C2)c2ccc3c(c2)OCO3)c(OC)c1 (stereo not given) ? inactive

Recorded test outcome, item COc1ccccc1CNC(=O)[C@@H](NC(=O)C1CCN(C(=O)[C@@H]2CCCN2C(=O)OC(C)(C)C)CC1)C(C)C inactive

---

# protocolSummary: DHR3 selectivity assay for inhibitors of ROR gamma transcriptional activity
# settings: Drosophila S2 Gal4-DHR3 UAS-luciferase, 20 h; series mostly up to 92.2 µM
Results filed as inconclusive are left out. Active and inactive are the calls of the source. Calls follow the shape of the dose curve; as a rule, active = well fitted inhibition curve with a large enough effect; inconclusive = small, poorly fitted or top-dose-only effect, or effect the other way; inactive = no such curve, though single readings can be large or run the other way.
Allowed answers: True for active, False for inactive

GET /call?item= COc1cc(O)c(C(CC(=O)N2CCCC(C)C2)c2ccccc2C)c(OC)c1 (stereo not given) returns the recorded outcome of this test. False

What outcome does the record of this test show for COc1cc(O)c(C(CC(=O)N2CCCC(C)C2)c2cccc3ccccc23)c(OC)c1 (stereo not given) ? False

Record request — test call for CCOc1ncccc1C(=O)OCC(=O)Nc1ccc(-c2nc3ccc(C)cc3s2)cc1 True

Outcome? COc1cc(O)c(C(CC(=O)N2CCC(C)CC2)c2ccc3c(c2)OCO3)c(OC)c1 (stereo not given) False

Record lookup: outcome of this test for COc1cc(O)c(C(CC(=O)NC2CCC(C)CC2)c2ccc3c(c2)OCO3)c(OC)c1 (stereo not given) ? False

Answer briefly: the call reported for COc1cc(O)c(C(CC(=O)N2CCCC(C)C2)c2ccccc2OC)c(OC)c1 (stereo not given) in this assay. False

Test call for this compound, please: CCNC(=O)CCc1nc(-c2ccc(C(C)(C)C)cc2)no1 True

What did this assay record as the result for COc1ccc(C(CC(=O)Nc2ccc(F)cc2)c2ccccc2)cc1 (stereo not given) ? False

For this compound, state the assay outcome: CCOC(=O)C1CCN(CC(=O)Nc2cc(C)nn2-c2nc3ccccc3s2)CC1 True

What was the test verdict on CN(C)S(=O)(=O)c1ccc(NC(=O)/C=C/c2ccccc2Cl)cc1 ? True

Test call, this compound: Cc1cccc(-c2nc3cc(NC(=O)C4CCCO4)ccc3o2)c1 (stereo not given) True

Could you please tell me the result logged for C[C@@H]1[C@H](C)CC[C@]2(C(=O)O)CC[C@]3(C)C(=CC[C@@H]4[C@@]5(C)CC[C@H](O)C(C)(C)[C@H]5CC[C@]43C)[C@@H]12 in this assay? True

// outcome(item) with item = COc1cc(O)c(C(CC(=O)N2CCCC(C)C2)c2ccc3ccccc3c2)c(OC)c1 (stereo not given) False

Can you look up the reported call for Cc1ccc(C(C)C)c(C(CC(=O)N2CCCC(C)C2)c2ccc3c(c2)OCO3)c1O (stereo not given) for me? False

Field: outcome | Entry: COc1ccc(C(CC(=O)N2CCCC(C)C2)c2c(O)cc(OC)cc2OC)c(OC)c1 (stereo not given) False

Per the records of this test, what outcome belongs to CC1CCCN(C(=O)CC(c2ccc3c(c2)OCO3)c2cc(C(C)C)ccc2O)C1 (stereo not given) ? False

What outcome does the record of this test show for CC1CCCN(C(=O)CC(c2ccc3c(c2)OCO3)c2cc(-c3ccccc3)ccc2O)C1 (stereo not given) ? False

For this compound, state the assay outcome: CC1CCCN(C(=O)CC(c2ccc3c(c2)OCO3)c2ccc(O)cc2O)C1 (stereo not given) False

Please state the recorded outcome for this compound: COc1cc(O)c(C(CC(=O)N2CCCC(C(C)C)C2)c2ccc3c(c2)OCO3)c(OC)c1 (stereo not given) False

Entry Cc1ccc(Sc2cncc3sc(C(N)=O)cc23)cc1 : call = ? True

---

# protocolSummary: DHR3 selectivity assay for inhibitors of ROR gamma transcriptional activity
# settings: Drosophila S2 Gal4-DHR3 UAS-luciferase, 20 h; series mostly up to 92.2 µM
Results filed as inconclusive are left out. Calls of active or inactive are those of the source. The call rests on the fitted dose curve; in most records, active means well fitted inhibition curve with a large enough effect; inconclusive means small, poorly fitted or top-dose-only effect, or effect the other way; inactive means no such curve, though single readings can be large or run the other way.
Pick one and only one: Yes (active), No (inactive)

Please indicate how the test categorized Cc1ccc(C)c(C(CC(=O)N2CCCC(C)C2)c2ccc3c(c2)OCO3)c1O (stereo not given) . No

In this assay, the call recorded for COc1cc(O)c(C(CC(=O)N2CCOCC2)c2ccc(C)cc2)c(OC)c1 (stereo not given) was what? No

// param item: COc1cc(O)c(C(CC(=O)N2CCCC(C)(C)C2)c2ccc3c(c2)OCO3)c(OC)c1 (stereo not given) ; yields the recorded call No

I would be grateful if you could indicate the recorded call for COc1cc(OC)c(C(CC(=O)N2CCCC(C)C2)c2ccc3c(c2)OCO3)c(OCc2ccccc2)c1 (stereo not given) . Yes

Name the outcome recorded for COc1cc(O)c(C(CC(=O)N2CCCC(C#N)C2)c2ccc3c(c2)OCO3)c(OC)c1 (stereo not given) in the assay. No

Called result for COc1cc(OC)c(C(CC(=O)N2CC(C)CC(C)C2)c2ccc3c(c2)OCO3)c(OCC(N)=O)c1 (stereo not given) No

Hi, sorry to bother you, what did the test record for COc1ccccc1C(CC(=O)N1CCCC(C)C1)c1ccccc1 (stereo not given) ? No

Outcome logged for O=C(CCCN1C(=O)/C(=C/c2ccccc2Cl)SC1=S)Nc1cccnc1 in this assay: Yes

What call does the record list for CCOc1ccc(-c2cc(CCCC(=O)NCc3cccnc3)no2)cc1 ? Yes

Write down the call the test reported for this compound. Item: COc1cc(O)c(C(CC(=O)N2CCCC(C(F)(F)F)C2)c2ccc3c(c2)OCO3)c(OC)c1 (stereo not given) No
